Target: noradrenaline (NA) reuptake sites (Rattus norvegicus)
Construct: Frontal cortical tissue from the brains of male Charles River rats; from tissue; host or cells: rat frontal cortical membranes
Sequence (Q63380 1-617): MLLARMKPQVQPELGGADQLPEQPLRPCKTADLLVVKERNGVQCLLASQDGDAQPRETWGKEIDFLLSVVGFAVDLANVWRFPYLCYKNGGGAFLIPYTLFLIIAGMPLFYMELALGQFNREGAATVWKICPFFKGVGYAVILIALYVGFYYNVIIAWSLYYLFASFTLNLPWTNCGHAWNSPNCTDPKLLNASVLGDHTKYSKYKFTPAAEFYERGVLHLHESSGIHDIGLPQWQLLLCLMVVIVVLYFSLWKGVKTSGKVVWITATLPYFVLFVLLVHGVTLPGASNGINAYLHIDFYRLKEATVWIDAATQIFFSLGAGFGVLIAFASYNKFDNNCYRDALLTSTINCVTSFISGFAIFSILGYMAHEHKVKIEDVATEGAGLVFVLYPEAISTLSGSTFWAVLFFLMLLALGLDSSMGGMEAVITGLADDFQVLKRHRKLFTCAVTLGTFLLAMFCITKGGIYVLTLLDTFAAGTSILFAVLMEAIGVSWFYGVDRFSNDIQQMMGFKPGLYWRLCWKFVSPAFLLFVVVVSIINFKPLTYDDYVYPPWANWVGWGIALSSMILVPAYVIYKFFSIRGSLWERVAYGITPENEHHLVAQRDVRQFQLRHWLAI
Assay: NA uptake: displacement of [3H]nisoxetine from noradrenaline reuptake sites, rat frontal cortical membranes
Format: binding
Conditions: read-out: NA uptake % displacement at 10^−6 M
Classify as follows. Reported inhibition at 1 µM greater than or equal to 70%: t. Reported inhibition at 1 µM below: f.

stdin: Evaluate Br.Clc1cccc2sc(C3=CSC4=NCCN34)cc12 [Example 1, hydrobromide] : inhibition at 1 µM at minimum 70%?
stdout: t

stdin: Reported inhibition at 1 µM at or above 70%? Br.CC1=C(c2cc3c(Cl)cccc3s2)N2CCCN=C2S1 [Example 17, hydrobromide]
stdout: t

====

ENDPOINT_NAME: melting point

stdin: Entry "CSC1=C(c2cccc3sccc23)N2CCN=C2S1.Cl" : reported melting point = ?
stdout: 95 to 105 °C

stdin: Would you kindly share the measured melting point for "OCC1=C(c2cc3c(Cl)cccc3s2)N2CCN=C2S1" ?
stdout: 170 to 172 °C

stdin: Request the reported melting point associated with "Br.CC1=C(c2cc3c(C)cccc3s2)N2CCN=C2S1"
stdout: 201 to 204 °C

Report melting point for each item below.
1. CSC1=C(c2cccc3sccc23)N2CCN=C2S1.O=C(O)/C=C/C(=O)O
2. Br.CC1=C(c2ccc3sccc3c2)N2CCN=C2S1
3. Br.C=CCC1=C(c2cccc3sccc23)N2CCN=C2S1
4. C1=C(c2cccc3sccc23)N2CCN=C2S1.Cl
5. Br.CCC1=C(c2cc3c(Cl)cccc3s2)N2CCN=C2S1

stdout:
1: 185 to 187 °C; 2: 285 °C; 3: 188 to 190 °C; 4: 246 to 249 °C; 5: 187 to 189 °C

Would you mind listing melting point for each of the following compounds?
1. Br.CC1=C(c2ccc3ccsc3c2)N2CCN=C2S1
2. OCC1=C(c2cc3ccccc3s2)N2CCN=C2S1
3. CCC1=C(c2cccc3sccc23)N2CCN=C2S1.O=C(O)/C=C/C(=O)O
4. OCC1=C(c2cccc3sccc23)N2CCN=C2S1

stdout:
1: 252 to 254 °C; 2: 138 to 140 °C; 3: 171 to 173 °C; 4: 145 to 149 °C

Below is a list of compounds. For each, state its recorded melting point.
1. C=CC1=C(c2cccc3sccc23)N2CCN=C2S1.Cl
2. Br.CC1=C(c2cc3ccccc3s2)N2CCN=C2S1
3. Br.CC1=C(c2cc3c(Cl)c(Cl)ccc3s2)N2CCN=C2S1
4. Br.COc1cccc2cc(C3=C(C)SC4=NCCN43)sc12

stdout:
195 to 197 °C
257 to 259 °C (dec.)
244 to 246 °C
270 to 272 °C

# per-item lookup of melting point; items listed below
1. Br.CC1=C(c2cc3c(Cl)cccc3s2)N2CCN=C2S1
2. Br.c1cc(C2=C(C3CC3)SC3=NCCN32)c2ccsc2c1
3. Br.CCC1=C(c2cccc3sccc23)N2CCN=C2S1
4. CC(C)C1=C(c2cccc3sccc23)N2CCN=C2S1.O=C(O)/C=C/C(=O)O

stdout:
["246 to 248 °C", "213 to 214 °C", "144 to 146 °C", "175 to 178 °C"]
